Target: fusion protein PRF
Sequence (chain, as listed by the source): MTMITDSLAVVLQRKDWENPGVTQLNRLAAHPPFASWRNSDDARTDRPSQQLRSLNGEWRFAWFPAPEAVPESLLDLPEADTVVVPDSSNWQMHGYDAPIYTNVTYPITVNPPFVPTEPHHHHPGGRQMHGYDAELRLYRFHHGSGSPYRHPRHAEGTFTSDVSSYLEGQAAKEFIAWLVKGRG
measurement.label: relative cleavage efficiency (%)
Provide the reading as a plain figure in %.

Recorded relative cleavage efficiency for OmpT protease variant OmpT D97M (protein) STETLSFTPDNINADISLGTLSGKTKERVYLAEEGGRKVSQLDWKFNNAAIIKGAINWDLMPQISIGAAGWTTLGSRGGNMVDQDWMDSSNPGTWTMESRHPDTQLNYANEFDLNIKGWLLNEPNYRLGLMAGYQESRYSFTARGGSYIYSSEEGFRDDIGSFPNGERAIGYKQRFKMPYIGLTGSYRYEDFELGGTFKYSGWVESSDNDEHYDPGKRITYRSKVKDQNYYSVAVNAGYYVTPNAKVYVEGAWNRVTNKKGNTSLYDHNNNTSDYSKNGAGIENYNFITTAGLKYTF , please?
7.7
